Biological target: Granzyme A (Rattus norvegicus) (UniProt Q8CJF4)
Sequence (Q8CJF4 as listed by the source): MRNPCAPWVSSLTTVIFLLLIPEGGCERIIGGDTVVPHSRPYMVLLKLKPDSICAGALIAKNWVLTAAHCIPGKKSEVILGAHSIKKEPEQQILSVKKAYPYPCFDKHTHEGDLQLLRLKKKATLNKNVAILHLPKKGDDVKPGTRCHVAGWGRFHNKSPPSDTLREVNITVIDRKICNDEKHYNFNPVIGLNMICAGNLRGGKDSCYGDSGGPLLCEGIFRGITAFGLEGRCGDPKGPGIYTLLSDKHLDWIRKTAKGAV
Assay: Inhibition of rat granzyme A.
As shown below, each of these compounds has a reported K obs / 1 value.
quantity measured: K obs / 1 (M⁻¹ s⁻¹)

[[record]]
compound = "N=C(N)c1ccc(C(NC(=O)[C@H](Cc2ccccc2)NC(=O)OCc2ccccc2)P(=O)(Oc2ccccc2)Oc2ccccc2)cc1 (some centres undefined)"
quantity_measured = "K obs / 1"
unit_name = "M⁻¹ s⁻¹"
meas_value = 8

[[record]]
compound = "NC(N)c1ccc(C(NC(=O)OCc2cccc3ccccc23)P(=O)(Oc2ccccc2)Oc2ccccc2)cc1 (centres undefined)"
quantity_measured = "K obs / 1"
unit_name = "M⁻¹ s⁻¹"
meas_value = 90

[[record]]
compound = "NC(N)c1ccc(C(NS(=O)(=O)c2cccc3ccccc23)P(=O)(Oc2ccccc2)Oc2ccccc2)cc1 (centres undefined)"
quantity_measured = "K obs / 1"
unit_name = "M⁻¹ s⁻¹"
meas_value = 30

[[record]]
compound = "N=C(N)c1ccc(C(NC(=O)/C=C/c2cccs2)P(=O)(Oc2ccccc2)Oc2ccccc2)cc1 (centres undefined)"
quantity_measured = "K obs / 1"
unit_name = "M⁻¹ s⁻¹"
meas_value = 430

[[record]]
compound = "C[C@H](NC(=O)OCc1ccccc1)C(=O)NC(c1ccc(C(N)N)cc1)P(=O)(Oc1ccccc1)Oc1ccccc1 (some centres undefined)"
quantity_measured = "K obs / 1"
unit_name = "M⁻¹ s⁻¹"
meas_value = 1270

[[record]]
compound = "NC(N)c1ccc(C(NC(=O)c2ccccc2Oc2ccccc2)P(=O)(Oc2ccccc2)Oc2ccccc2)cc1 (centres undefined)"
quantity_measured = "K obs / 1"
unit_name = "M⁻¹ s⁻¹"
meas_value = 340

[[record]]
compound = "N=C(N)c1ccc(C(NC(=O)/C=C/c2cccnc2)P(=O)(Oc2ccccc2)Oc2ccccc2)cc1 (centres undefined)"
quantity_measured = "K obs / 1"
unit_name = "M⁻¹ s⁻¹"
meas_value = 1

[[record]]
compound = "N=C(N)c1ccc(C(NC(=O)[C@H](CCCCN)NC(=O)OCc2ccccc2)P(=O)(Oc2ccccc2)Oc2ccccc2)cc1 (some centres undefined)"
quantity_measured = "K obs / 1"
unit_name = "M⁻¹ s⁻¹"
meas_value = 15

[[record]]
compound = "C[C@H](NC(=O)[C@@H](C)NC(=O)OCc1ccccc1)C(=O)NC(c1ccc(C(=N)N)cc1)P(=O)(Oc1ccccc1)Oc1ccccc1 (some centres undefined)"
quantity_measured = "K obs / 1"
unit_name = "M⁻¹ s⁻¹"
meas_value = 480

